- subjectOfTest: 5-hydroxytryptamine receptor 3A (Rattus norvegicus)
- Sequence (P35563 whole entry): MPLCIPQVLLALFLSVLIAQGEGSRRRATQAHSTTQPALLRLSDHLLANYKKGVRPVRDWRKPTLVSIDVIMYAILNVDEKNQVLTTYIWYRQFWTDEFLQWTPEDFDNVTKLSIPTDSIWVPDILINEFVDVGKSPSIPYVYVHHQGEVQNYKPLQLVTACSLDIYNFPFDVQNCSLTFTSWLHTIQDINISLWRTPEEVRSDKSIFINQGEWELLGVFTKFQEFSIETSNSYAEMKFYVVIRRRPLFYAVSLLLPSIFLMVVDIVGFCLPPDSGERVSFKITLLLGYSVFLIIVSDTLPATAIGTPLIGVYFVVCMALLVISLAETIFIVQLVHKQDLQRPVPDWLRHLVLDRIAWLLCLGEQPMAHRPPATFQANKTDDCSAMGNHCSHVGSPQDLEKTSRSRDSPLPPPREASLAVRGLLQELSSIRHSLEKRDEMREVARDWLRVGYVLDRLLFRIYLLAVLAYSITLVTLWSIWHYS
- assaySummary: Affinity at 5-hydroxytryptamine 3 receptor from rat frontal cortex using [3H]granisetron as radioligand (For granisetron = Ki(nM)=0.3+/-0.01)
- Format: tissue-based
Each item that follows carries a reported Ki.

For record COc1ccccc1N1CCN(CCC(Oc2cccc3ccccc23)c2ccsc2)CC1 (configuration not stated) the listed Ki is > 5 µM

For record COc1ccccc1N1CCN(CCC(O)c2csc3ccccc23)CC1 (configuration not stated) the listed Ki is > 5 µM

* * *

- subjectOfTest: 5-hydroxytryptamine receptor 1A (Rattus norvegicus, UniProt P19327)
- Sequence (P19327 whole entry): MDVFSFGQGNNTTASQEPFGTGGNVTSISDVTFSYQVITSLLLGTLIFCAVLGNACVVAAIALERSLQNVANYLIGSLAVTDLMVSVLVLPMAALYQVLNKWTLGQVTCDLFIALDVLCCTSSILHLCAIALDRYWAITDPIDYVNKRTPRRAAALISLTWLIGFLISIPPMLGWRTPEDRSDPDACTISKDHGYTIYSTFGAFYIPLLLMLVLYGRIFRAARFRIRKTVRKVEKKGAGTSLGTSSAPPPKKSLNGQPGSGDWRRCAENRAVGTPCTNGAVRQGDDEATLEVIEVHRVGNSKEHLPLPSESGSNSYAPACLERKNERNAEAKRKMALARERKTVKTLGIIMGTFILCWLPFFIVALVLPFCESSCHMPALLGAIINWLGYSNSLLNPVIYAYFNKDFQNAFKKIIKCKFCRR
- assaySummary: Binding affinity to 5-hydroxytryptamine 1A receptor (5-HT 1A receptor, serotonin receptor) from rat cortex using [3H]8-OH-DPAT as radioligand
- cond: read-out: Ki
metric: Ki (nM)
Lab book: enter the figure in nM, no units written.

# count of solved cases: 2
O=C(CCN1CCN(c2ccccc2Cl)CC1)c1ccccc1 :: 180
O=C(CCN1CCN(c2ccccn2)CC1)c1ccccc1 :: 50

Form field, Ki with 5-hydroxytryptamine receptor 1A (Rattus norvegicus, UniProt P19327), item `O=C(CCN1CCN(c2ccccc2O)CC1)c1ccc2ccccc2c1` : 1000

Form field, Ki with 5-hydroxytryptamine receptor 1A (Rattus norvegicus, UniProt P19327), item `Cc1cc(C(=O)CCN2CCN(c3cccc4ccccc34)CC2)c(C)s1` : 100

* * *

- subjectOfTest: Sodium-dependent serotonin transporter (Rattus norvegicus)
- Sequence (P31652 whole entry): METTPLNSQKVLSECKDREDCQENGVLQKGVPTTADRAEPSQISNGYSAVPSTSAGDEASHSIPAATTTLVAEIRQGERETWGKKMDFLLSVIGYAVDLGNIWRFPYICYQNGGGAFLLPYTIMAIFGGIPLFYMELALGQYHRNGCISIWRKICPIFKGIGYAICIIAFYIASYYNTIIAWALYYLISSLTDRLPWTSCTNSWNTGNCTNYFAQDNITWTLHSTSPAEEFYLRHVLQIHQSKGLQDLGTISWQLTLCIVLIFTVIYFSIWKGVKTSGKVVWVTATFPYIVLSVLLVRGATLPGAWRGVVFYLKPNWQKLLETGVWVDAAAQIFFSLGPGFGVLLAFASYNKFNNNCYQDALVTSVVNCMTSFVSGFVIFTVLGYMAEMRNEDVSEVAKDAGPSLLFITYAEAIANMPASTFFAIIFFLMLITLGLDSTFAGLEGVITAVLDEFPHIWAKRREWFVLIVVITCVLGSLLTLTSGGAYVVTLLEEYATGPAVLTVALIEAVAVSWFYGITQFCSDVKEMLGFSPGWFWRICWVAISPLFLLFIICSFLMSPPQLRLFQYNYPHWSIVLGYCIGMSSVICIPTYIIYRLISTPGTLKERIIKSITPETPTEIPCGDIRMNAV
- assaySummary: Binding affinity towards Serotonin transporter from rat cortex measured using [3H]paroxetine
- cond: read-out: Ki
metric: Ki (µM)
Lab book: enter the figure in µM, no units written.

# count of solved cases: 3
COc1ccc(C(CCN2CCN(c3ccccc3OC)CC2)Oc2ccc(C(F)(F)F)cc2)cc1 (stereo unspecified) :: 0.65
COc1ccccc1N1CCN(CCC(Oc2ccc3c(c2)OCO3)c2ccccc2)CC1 (stereo unspecified) :: 0.5
OC(CCN1CCN(c2ccc(F)cc2)CC1)c1ccccc1 (stereo unspecified) :: 4.7

Form field, Ki with Sodium-dependent serotonin transporter (Rattus norvegicus), item COc1ccccc1N1CCN(CCC(O)c2cc(C)sc2C)CC1 (stereo unspecified) : 0.115

Form field, Ki with Sodium-dependent serotonin transporter (Rattus norvegicus), item COc1ccccc1N1CCN(CCC(O)c2ccc(-c3ccccc3)cc2)CC1 (stereo unspecified) : 0.175
